# Tested on: HeLa cells
# measurement_description: Compound screen by flow cytometry: HeLa cell count as surrogate readout of cell viability (z-scoreHeLa); note: test concentration or dose not given here
# Format: cell-based, human
# study_conditions: compound screen, HeLa cell count, replicate 3
measurement_label: z-scoreHeLa rep 3

1) COC(=O)Nc1nc2ccc(Oc3ccc(NC(=O)Nc4cc(C(F)(F)F)ccc4F)cn3)cc2[nH]1 [GW681170A]; 0.78
2) O=C(NCCNc1ccnc(Nc2ccc(F)cc2)n1)Nc1ccccc1F [GSK1379880A]; 0.51
3) COc1ccc(CNC(=O)NC2CCN(c3ccnc(Nc4cc(OC)c(OC)c(OC)c4)n3)C2)cc1 (centres unmarked) [GSK1379748A]; 0.27
4) COc1ccccc1-c1cc(/C=C2\C(=O)Nc3ncc(Br)cc32)cc(Br)c1O [GW442130X]; -0.14
5) Cc1c(O)cccc1Nc1ccnc2ccc(C(F)(F)F)cc12 [GW466413A]; -0.58
6) Oc1ccc2ncnc(Nc3ccc(OCc4ccccc4)cc3)c2c1 [GI262866A]; 1.06
7) Cc1cccc(-c2nc(Nc3ccncc3)c3ccccc3n2)n1 [GW855857X]; -0.46
8) O=C(Nc1ccc(Oc2ccc3nc(NC(=O)c4ccco4)[nH]c3c2)cc1)Nc1cc(C(F)(F)F)ccc1F [GW683134A]; -0.74
9) Cc1n[nH]c2cc(Nc3ccnc(Nc4cccc(CN5CCOCC5)c4)n3)ccc12 [GW682569X]; -1.03
10) CC(=O)N1CCN(c2ccc(Nc3nccc(-c4sc(C(C)C)nc4-c4cccc(NS(=O)(=O)c5cccc(Cl)c5)c4)n3)cn2)CC1 [GSK1660437A]; -0.46
11) COc1ccc(-c2oc3ncnc(N)c3c2-c2ccc(NC(=O)Nc3cc(C(F)(F)F)ccc3F)cc2)cc1 [GW768505A]; -0.53
12) COc1cc(Nc2ncc(-c3ccccc3)o2)cc(OC)c1OC [GW627512B]; -1.10
13) COc1cccc(NC(=O)NCCNc2ccnc(Nc3ccc(F)cc3)n2)c1 [GSK1379879A]; -0.51
14) COc1cccc(CC(=O)N2CCc3cc(-c4cn(C)c5ncnc(N)c45)ccc32)c1 [GSK2608899A]; -1.27
15) Cn1cc(-c2ccc3c(c2)CCN3C(=O)Cc2cc(F)cc(C(F)(F)F)c2)c2c(N)ncnc21 [GSK2635225A]; -0.36
16) CS(=O)(=O)CCNCc1nc(-c2ccc3ncnc(Nc4ccc(F)c(Cl)c4)c3c2)cs1 [GW461104A]; -2.79
17) Cc1cc(N2CCC(NS(=O)(=O)c3ccc(F)cc3)CC2)nc(Nc2cccc(C#N)c2)n1 [GSK1653537A]; 0.37
18) COc1cccc(-n2nc(C)c3c(N/N=C(\C)c4ccncc4)ncnc32)c1 [GW809885X]; 0.35
19) CCNC(=O)O[C@H]1CN[C@H](C#Cc2cc3ncnc(Nc4ccc(OCc5cccc(F)c5)c(Cl)c4)c3s2)C1 [GSK192082A]; -0.55
20) O=C(c1ccc(-c2cc(-c3c[nH]nc3-c3ccccn3)ccn2)cc1)N1CCCC1 [GW792479X]; 1.44

====

# Tested on: HeLa cells
# measurement_description: Compound screen by flow cytometry: HeLa cell count as surrogate readout of cell viability (z-scoreHeLa); note: test concentration or dose not given here
# Assay type: cell-based, human
# study_conditions: PKIS compound screen raw data, HeLa cell count, replicate 3
Catalogue of compounds with associated cell count rep 3
measurement_label: cell count rep 3

1. O=C(Nc1n[nH]c2nc(-c3ccccc3)c(Br)cc12)C1CC1 [SB-708998]; 20350
2. COC(=O)Nc1nc2ccc(Oc3ccc(NC(=O)Nc4cc(C(F)(F)F)ccc4F)cc3)cc2n1C [GW692089A]; 19864
3. Cc1cccc2c1NC(=O)C2=NNc1ccc(S(N)(=O)=O)cc1 [GW282536X]; 1046
4. CC(C)c1nc(-c2cccc(NS(=O)(=O)c3c(F)cccc3F)c2F)c(-c2ccnc(Nc3ccc(N4CCOCC4)nc3)n2)s1 [GSK2008607A]; 12213
5. COC(=O)c1cccc(NC(=O)NC2CCN(c3ccnc(Nc4ccc(OC)cc4)n3)C2)c1 (centres unmarked) [GSK1379746A]; 14326
6. COc1cc2c(Nc3cccc(NC(=O)c4ccccc4)c3)ncnc2cc1OCCCN1CCOCC1 [GSK223810A]; 20680
7. O=c1cc(N2CCOCC2)nc2n(Cc3cccc(Cl)c3Cl)c(C3CC3)nn12 [GSK2358994A]; 37884
8. COC(=O)Nc1nc2ccc(Oc3ccc(NC(=O)Nc4cc(C(F)(F)F)ccc4Cl)cc3)cc2[nH]1 [GW697465A]; 5423
9. CCCNC(=O)Nc1ccc(N(C)c2ccnc(NC3CC3)n2)cc1 [GW818933X]; 16622
10. COc1cc(Nc2nccc(N3CCC(NC(=O)C(C)c4ccc(Cl)cc4)C3)n2)cc(OC)c1OC (centres unmarked) [GSK1379757A]; 22729
11. c1ccc(-c2cc3ccncc3cc2OC2CCNCC2)cc1 [GSK1122999D]; 22119
12. COc1ccc(Nc2nccc(N3CCC(NC(=O)C(C)c4ccc(Cl)cc4)CC3)n2)cc1 (centres unmarked) [GSK1379812A]; 20779
13. COc1cc2ncn(-c3cc(OCc4ccccc4C(F)(F)F)c(C(=O)N(C)C)s3)c2cc1OC [GSK1030062A]; 32107
14. Cc1ccc(Nc2ccnc(Nc3cccc(C(N)=O)c3)n2)cc1O [GW575808A]; 43165
15. CN1CCN(Cc2ccc(NC(=O)Nc3ccc(N(C)c4ccnc(Nc5ccc(CS(C)(=O)=O)cc5)n4)cc3)cc2)CC1 [GW827654A]; 23281
16. c1ccc(-c2n[nH]cc2Nc2ccnc3ccccc23)nc1 [GW694077X]; 18866
17. Fc1cc(Cl)ccc1Nc1ccnc2cc(I)ccc12 [GW551191X]; 6828
18. Cc1cccc(-c2nc(Nc3ccncc3)c3ccccc3n2)n1 [GW855857X]; 4517
19. c1ccc(Oc2ccc(Nc3ccnc4cc(-c5ccc(CN6CCNCC6)o5)ccc34)cc2)nc1 [GW567142A]; 27656
20. COc1ccc(Nc2nccc(N3CCC(NC(=O)Nc4cccc(OC)c4)C3)n2)cc1 (centres unmarked) [GSK1379742A]; 39377
21. COc1cc(C)c(N(C)C(=O)CN(C)C)cc1Nc1nc(Nc2cccc(F)c2C(N)=O)c2cc[nH]c2n1 [GSK2219385A]; 38560
22. Cc1ccc(NC(=O)c2ccnc(N3CCN(C)CC3)c2)cc1-c1ccc(C(=O)NCC2CC2)cc1 [GW775604X]; 18503
23. CS(=O)(=O)CCNCc1nc(-c2ccc3ncnc(Nc4ccc(OCc5ccccc5)c(Cl)c4)c3c2)cs1 [GW582764A]; 4776

Data origin: paper PMC10999543
